- target-or-system: VRK1 (human) (UniProt Q99986)
- Sequence (Q99986 whole entry, looked up): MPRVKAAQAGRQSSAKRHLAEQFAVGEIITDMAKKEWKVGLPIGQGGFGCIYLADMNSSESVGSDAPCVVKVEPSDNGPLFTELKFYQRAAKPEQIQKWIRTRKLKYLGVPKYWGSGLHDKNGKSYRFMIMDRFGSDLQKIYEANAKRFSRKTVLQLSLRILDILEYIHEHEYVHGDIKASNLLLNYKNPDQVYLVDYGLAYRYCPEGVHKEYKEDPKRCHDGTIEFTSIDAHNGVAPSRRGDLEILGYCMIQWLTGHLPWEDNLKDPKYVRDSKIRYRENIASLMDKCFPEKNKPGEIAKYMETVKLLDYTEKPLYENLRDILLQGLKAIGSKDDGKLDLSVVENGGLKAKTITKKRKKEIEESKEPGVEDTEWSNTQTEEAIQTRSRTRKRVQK
- test-method-notes: radiometric filter-binding kinase assay, Kinase HotSpot
- condition-description: compound 0.5 µM; ATP 10 µM
readout-name: residual activity (%)
Give just the number in %; leave the unit off.

# example entries with known answers
> print(dat)
                                 mol.smiles  numeric.readout
1           Ic1cccc(CSc2nnc(-c3ccncc3)o2)c1             93.1
2  CS(=O)(=O)CCNCc1ccc(-c2ccc3ncnc(Nc4ccc(OCc5cccc(F)c5)c(Cl)c4)c3c2)o1              101
3  COc1ccc2c(c1)c(C1=C(c3c[nH]c4ccccc34)C(=O)NC1=O)cn2CCCN(C)C             76.7
4        CC(C)(C)c1cc(C=C(C#N)C#N)cc(Br)c1O             86.4
5  COc1cc2ncnc(Nc3ccc(Oc4ccccc4)cc3)c2cc1OC             98.2
6  CN(C)CCCn1cc(C2=C(c3c[nH]c4ccccc34)C(=O)NC2=O)c2ccccc21             95.5

Specify residual activity for `Cc1nc(-c2ccccc2)c(-c2ccncc2)o1` and stop.
98.5

Specify residual activity for `Cc1cncc2cccc(S(=O)(=O)N3CCCN(C(=O)CN)C[C@H]3C)c12` and stop.
102

----------
This section presents molecules with their documented residual activity values.
- target-or-system: TSSK1B (human) (UniProt Q9BXA7)
- Sequence (Q9BXA7 whole entry, looked up): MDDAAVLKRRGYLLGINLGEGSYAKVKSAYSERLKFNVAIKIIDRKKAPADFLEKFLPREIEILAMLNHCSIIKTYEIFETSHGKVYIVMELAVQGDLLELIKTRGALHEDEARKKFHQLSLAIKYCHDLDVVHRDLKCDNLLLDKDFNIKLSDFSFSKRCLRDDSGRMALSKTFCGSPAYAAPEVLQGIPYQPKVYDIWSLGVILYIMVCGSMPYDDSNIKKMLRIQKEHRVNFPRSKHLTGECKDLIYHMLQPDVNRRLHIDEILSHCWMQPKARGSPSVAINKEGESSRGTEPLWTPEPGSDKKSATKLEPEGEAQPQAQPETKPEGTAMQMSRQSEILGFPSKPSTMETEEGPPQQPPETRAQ
- test-method-notes: radiometric filter-binding kinase assay, Kinase HotSpot
- condition-description: compound 0.5 µM; ATP 10 µM
Give just the number in %; leave the unit off.

# example entries with known answers
> print(dat)
                                 mol.smiles       readout.name  numeric.readout
1  N#Cc1c[nH]c2c[nH]/c(=N\Cc3cccnc3)cc2/c1=N\c1ccc(F)c(Cl)c1  residual activity             84.4
2  CS(=O)(=O)CCNCc1ccc(-c2ccc3ncnc(Nc4ccc(OCc5cccc(F)c5)c(Cl)c4)c3c2)o1  residual activity               79
3       Fc1ccc(-c2nc3n(c2-c2ccncc2)CCS3)cc1  residual activity              119
4    COc1ccc(Cl)cc1NC(=O)Nc1cc(C)nc2ccccc12  residual activity             94.6
5  O=C1Nc2ccc(Br)cc2/C1=C\c1cc2c([nH]1)CCCC2  residual activity             36.1
6            Cc1nc(-c2ccccc2)c(-c2ccncc2)o1  residual activity              108

Specify residual activity for `COc1cc2ncnc(Nc3ccc(OCc4ccccc4)cc3)c2cc1OC` and stop.
106

Specify residual activity for `CCCCc1c(-c2ccc(OC)cc2)[nH]c2nccnc12` and stop.
65.3

Specify residual activity for `Cn1c2ccccc2c2c3c(c4c5ccccc5n(CCC#N)c4c21)CNC3=O` and stop.
10.1

Specify residual activity for `N#C/C(=C\c1ccc(O)c(O)c1)C(=O)NCc1ccccc1` and stop.
90.2

Specify residual activity for `COc1cc(Nc2c(C#N)cnc3cc(OCCCN4CCN(C)CC4)c(OC)cc23)c(Cl)cc1Cl` and stop.
79.2

----------
This section presents molecules with their documented residual activity values.
- target-or-system: UniProt:O95819
- Sequence (O95819 whole entry, looked up): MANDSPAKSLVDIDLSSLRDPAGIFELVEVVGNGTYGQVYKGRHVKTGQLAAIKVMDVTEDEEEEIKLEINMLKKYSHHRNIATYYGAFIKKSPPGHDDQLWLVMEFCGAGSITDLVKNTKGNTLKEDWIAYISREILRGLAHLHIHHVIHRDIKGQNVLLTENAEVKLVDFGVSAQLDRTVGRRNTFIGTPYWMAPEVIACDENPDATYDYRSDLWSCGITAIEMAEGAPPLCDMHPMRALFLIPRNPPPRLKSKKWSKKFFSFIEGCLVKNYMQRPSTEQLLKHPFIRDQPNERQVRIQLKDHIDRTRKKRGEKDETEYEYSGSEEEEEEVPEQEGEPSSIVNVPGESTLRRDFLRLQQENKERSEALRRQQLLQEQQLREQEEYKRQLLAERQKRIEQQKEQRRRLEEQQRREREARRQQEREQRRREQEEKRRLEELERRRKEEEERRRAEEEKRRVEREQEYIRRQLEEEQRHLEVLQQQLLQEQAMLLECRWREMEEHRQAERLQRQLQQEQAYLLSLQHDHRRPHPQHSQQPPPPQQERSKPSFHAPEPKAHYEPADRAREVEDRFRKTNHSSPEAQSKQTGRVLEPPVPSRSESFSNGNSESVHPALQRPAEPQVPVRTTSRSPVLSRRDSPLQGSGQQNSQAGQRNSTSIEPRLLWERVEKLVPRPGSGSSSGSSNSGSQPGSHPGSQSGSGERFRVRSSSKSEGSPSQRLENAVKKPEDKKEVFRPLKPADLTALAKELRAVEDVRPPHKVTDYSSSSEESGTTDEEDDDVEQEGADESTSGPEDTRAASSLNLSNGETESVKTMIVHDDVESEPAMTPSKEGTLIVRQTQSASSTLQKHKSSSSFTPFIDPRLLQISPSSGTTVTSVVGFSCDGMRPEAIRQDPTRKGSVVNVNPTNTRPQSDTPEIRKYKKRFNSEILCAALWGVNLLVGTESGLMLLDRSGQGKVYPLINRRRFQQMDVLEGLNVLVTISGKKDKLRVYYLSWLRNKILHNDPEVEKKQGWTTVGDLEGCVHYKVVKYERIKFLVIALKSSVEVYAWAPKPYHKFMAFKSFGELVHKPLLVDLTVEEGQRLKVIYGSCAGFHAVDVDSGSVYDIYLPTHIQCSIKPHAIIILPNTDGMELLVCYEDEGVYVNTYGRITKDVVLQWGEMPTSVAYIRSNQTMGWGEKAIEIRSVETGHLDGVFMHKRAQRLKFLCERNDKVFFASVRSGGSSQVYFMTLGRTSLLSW
- test-method-notes: radiometric filter-binding kinase assay, Kinase HotSpot
- condition-description: compound 0.5 µM; ATP 10 µM
Give just the number in %; leave the unit off.

# example entries with known answers
> print(dat)
                                 mol.smiles  numeric.readout
1            Cc1nc(-c2ccccc2)c(-c2ccncc2)o1             85.1
2  Cc1cncc2cccc(S(=O)(=O)N3CCCN(C(=O)CN)C[C@H]3C)c12             87.6
3  COc1ccc(S(=O)(=O)N(CCO)c2ccccc2CN(C)C/C=C/c2ccc(Cl)cc2)cc1             97.6

State residual activity on UniProt:O95819. Entry: `O=C(c1cc2cc(O)ccc2[nH]1)c1cc2cc(O)ccc2[nH]1`
6.63

State residual activity on UniProt:O95819. Entry: `Cn1c2ccccc2c2c3c(c4c5ccccc5n(CCC#N)c4c21)CNC3=O`
0.433
